- TARGET_OR_TEST_SYSTEM: Opioid receptors; mu & delta (Rattus norvegicus) (UniProt P33533+P33535)
- Sequence (P33535 whole entry, looked up, one chain of several): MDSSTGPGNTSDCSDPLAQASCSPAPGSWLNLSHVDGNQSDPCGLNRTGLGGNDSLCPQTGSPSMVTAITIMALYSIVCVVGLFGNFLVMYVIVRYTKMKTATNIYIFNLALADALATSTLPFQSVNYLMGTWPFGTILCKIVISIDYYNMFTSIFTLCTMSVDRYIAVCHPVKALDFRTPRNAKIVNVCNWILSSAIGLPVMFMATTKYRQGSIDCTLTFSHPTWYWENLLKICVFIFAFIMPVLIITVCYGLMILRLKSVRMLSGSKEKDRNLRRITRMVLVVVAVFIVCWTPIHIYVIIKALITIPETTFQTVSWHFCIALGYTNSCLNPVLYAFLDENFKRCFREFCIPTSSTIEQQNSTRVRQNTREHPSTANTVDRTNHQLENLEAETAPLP
- METHOD_NOTES: Selectivity ratio (Ki value towards mu receptor compared to that of delta receptor).
- Type: protein assay
Threshold 80: Selectivity strictly smaller gives Fulfilled, otherwise Not fulfilled.

INSERT INTO results (smiles_record, class_name) VALUES
  ('C=CCN1CC[C@]23c4c5ccc(O)c4O[C@H]2c2[nH]c4ccccc4c2C[C@@]3(OC)[C@H]1C5', 'Not fulfilled');

INPUT: Strictly below 80: is that where Selectivity of `C=CCN1CC[C@]23c4c5ccc(O)c4O[C@H]2c2[nH]c4ccccc4c2C[C@@]3(OCC)[C@H]1C5` sits?
OUTPUT: Not fulfilled

----------
- TARGET_OR_TEST_SYSTEM: Delta-type opioid receptor (Rattus norvegicus)
- METHOD_NOTES: Binding affinity at delta opioid receptor 1 in rat brain membrane by [3H]DADLE displacement.
- Assay type: cell membranes
REPORTED_PROPERTY: pKi
Give bare numbers, as −log10 of the molar value.

Some solved entries appear below for comparison.
INSERT INTO results (smiles_record, reported_property, endpoint_value) VALUES
  ('CCO[C@@]12Cc3c([nH]c4ccccc34)[C@]3(C)Oc4c(O)ccc5c4[C@@]31CCN(CC1CCC1)[C@@H]2C5', 'pKi', 7.90),
  ('C=CCN1CC[C@]23c4c5ccc(O)c4O[C@H]2c2c(c4ccccc4n2C)C[C@@]3(OC)[C@H]1C5', 'pKi', 8.71),
  ('CO[C@@]12Cc3c([nH]c4ccccc34)[C@@H]3Oc4c(O)ccc5c4[C@@]31CCN(CC1CCCCC1)[C@@H]2C5', 'pKi', 6.43);

Lab note: each compound below needs its pKi filled in.
1. CCO[C@@]12Cc3c(oc4ccccc34)[C@@H]3Oc4c(O)ccc5c4[C@@]31CCN(CC1CC1)[C@@H]2C5
2. CCCN1CC[C@]23c4c5ccc(O)c4O[C@H]2c2c(c4ccccc4n2C)C[C@@]3(OC)[C@H]1C5
3. C=CCN1CC[C@]23c4c5ccc(O)c4O[C@H]2c2oc4ccccc4c2C[C@@]3(OCC)[C@H]1C5
4. CCCO[C@@]12Cc3c(n(CCC)c4ccccc34)[C@@H]3Oc4c(O)ccc5c4[C@@]31CCN(CC1CC1)[C@@H]2C5

OUTPUT:
1. 8.93
2. 7.94
3. 8.92
4. 8.89

----------
- TARGET_OR_TEST_SYSTEM: UniProt P41144
- Sequence (P41144 whole entry): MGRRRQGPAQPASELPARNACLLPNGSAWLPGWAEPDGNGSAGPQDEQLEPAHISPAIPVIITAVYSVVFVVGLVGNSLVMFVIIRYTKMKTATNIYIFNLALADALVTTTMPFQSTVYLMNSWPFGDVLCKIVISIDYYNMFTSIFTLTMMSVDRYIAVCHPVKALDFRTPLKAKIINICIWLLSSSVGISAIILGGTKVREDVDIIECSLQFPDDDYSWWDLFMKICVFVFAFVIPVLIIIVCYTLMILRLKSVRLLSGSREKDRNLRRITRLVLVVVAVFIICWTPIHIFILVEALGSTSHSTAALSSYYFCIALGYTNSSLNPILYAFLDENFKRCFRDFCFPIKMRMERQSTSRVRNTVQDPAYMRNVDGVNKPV
- METHOD_NOTES: Binding affinity at kappa opioid receptor 1 in guinea pig brain by [3H]U-69593 displacement.
REPORTED_PROPERTY: pKi
Give bare numbers, as −log10 of the molar value.

Some solved entries appear below for comparison.
INSERT INTO assay_data (molecule, endpoint_value) VALUES
  ('CCCO[C@@]12Cc3c([nH]c4ccccc34)[C@]3(C)Oc4c(O)ccc5c4[C@@]31CCN(CC1CC1)[C@@H]2C5', 6.30),
  ('CN1CC[C@]23c4c5ccc(O)c4O[C@H]2c2[nH]c4ccccc4c2C[C@@]3(O)[C@H]1C5 [OXYMORPHINDOLE]', 6.40),
  ('CO[C@@]12Cc3c([nH]c4ccccc34)[C@@H]3Oc4c(O)ccc5c4[C@@]31CCN(CC1CCCCC1)[C@@H]2C5', 5.49),
  ('Oc1ccc2c3c1O[C@H]1c4[nH]c5ccccc5c4C[C@@]4(O)[C@@H](C2)N(CC2CC2)CC[C@]314 [NALTRINDOLE]', 7.80),
  ('CCO[C@@]12Cc3c([nH]c4ccccc34)[C@]3(C)Oc4c(O)ccc5c4[C@@]31CCN(CC1CCC1)[C@@H]2C5', 6.42),
  ('CO[C@@]12Cc3c([nH]c4ccccc34)[C@]3(C)Oc4c(O)ccc5c4[C@@]31CCN(C)[C@@H]2C5', 5.82),
  ('C=CCN1CC[C@]23c4c5ccc(O)c4O[C@H]2c2c(c4ccccc4n2Cc2ccccc2Cl)C[C@@]3(OCc2ccccc2Cl)[C@H]1C5', 3.14),
  ('C=CCN1CC[C@]23c4c5ccc(O)c4O[C@H]2c2[nH]c4ccccc4c2C[C@@]3(OC)[C@H]1C5', 6.63),
  ('C=CCO[C@@]12Cc3c(n(CC=C)c4ccccc34)[C@@H]3Oc4c(O)ccc5c4[C@@]31CCN(CC=C)[C@@H]2C5', 6.12),
  ('CCCN1CC[C@]23c4c5ccc(O)c4O[C@H]2c2c(c4ccccc4n2C)C[C@@]3(OC)[C@H]1C5', 6.94);

INPUT: # returns recorded pKi (system: UniProt P41144) for `C=CCN1CC[C@]23c4c5ccc(O)c4O[C@H]2c2oc4ccccc4c2C[C@@]3(OCC)[C@H]1C5`
OUTPUT: 7.17

----------
- TARGET_OR_TEST_SYSTEM: Delta-type opioid receptor (Rattus norvegicus, UniProt P33533)
- Sequence (P33533 whole entry): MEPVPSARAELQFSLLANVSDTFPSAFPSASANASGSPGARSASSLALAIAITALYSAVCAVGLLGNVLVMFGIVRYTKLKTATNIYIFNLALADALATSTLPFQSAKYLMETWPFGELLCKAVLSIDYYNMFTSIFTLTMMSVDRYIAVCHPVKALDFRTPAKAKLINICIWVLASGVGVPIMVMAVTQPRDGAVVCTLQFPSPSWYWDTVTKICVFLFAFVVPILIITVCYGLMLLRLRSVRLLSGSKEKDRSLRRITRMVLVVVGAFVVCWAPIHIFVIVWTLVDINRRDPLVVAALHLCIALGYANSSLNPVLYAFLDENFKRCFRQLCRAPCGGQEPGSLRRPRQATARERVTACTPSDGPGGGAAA
- METHOD_NOTES: Binding affinity at delta opioid receptor 1 in rat brain membrane by [3H]DADLE displacement.
- Format: cell membranes
REPORTED_PROPERTY: Ki

INSERT INTO assay_data (compound, endpoint_value) VALUES
  ('Oc1ccc2c3c1O[C@H]1c4[nH]c5ccccc5c4C[C@@]4(O)[C@@H](C2)N(CC2CC2)CC[C@]314 [NALTRINDOLE]', '0.81 nM');

Lab note: each compound below needs its Ki filled in.
1. CC(C)CCO[C@@]12Cc3c([nH]c4ccccc34)[C@]3(C)Oc4c(O)ccc5c4[C@@]31CCN(C)[C@@H]2C5
2. CCO[C@@]12Cc3c([nH]c4ccccc34)[C@]3(C)Oc4c(O)ccc5c4C31CCN(CC1CC1)[C@@H]2C5
3. C=CCN1CC[C@]23c4c5ccc(O)c4O[C@H]2c2[nH]c4ccccc4c2C[C@@]3(OCC)[C@H]1C5
4. CCCO[C@@]12Cc3c([nH]c4ccccc34)[C@]3(C)Oc4c(O)ccc5c4[C@@]31CCN(CC1CC1)[C@@H]2C5
5. C=CCN1CC[C@]23c4c5ccc(O)c4O[C@H]2c2[nH]c4ccccc4c2C[C@@]3(OC)[C@H]1C5
6. CCO[C@@]12Cc3c([nH]c4ccccc34)[C@]3(C)Oc4c(O)ccc5c4[C@@]31CCN(C)[C@@H]2C5

OUTPUT:
["12.8 nM", "4.4 nM", "2.6 nM", "5.3 nM", "3.8 nM", "3.9 nM"]

----------
I'd be grateful if you could share measured Selectivity for these entries.
- Species on record: Rattus norvegicus
- METHOD_NOTES: Selectivity ratio (Ki value towards kappa receptor compared to that of delta receptor).
Give bare numbers.

Some solved entries appear below for comparison.
INSERT INTO results (smiles_record, reported_property, endpoint_value) VALUES
  ('C=CCN1CC[C@]23c4c5ccc(O)c4O[C@H]2c2c(c4ccccc4n2Cc2ccccc2Cl)C[C@@]3(OCc2ccccc2Cl)[C@H]1C5', 'Selectivity', 4800),
  ('CCO[C@@]12Cc3c([nH]c4ccccc34)[C@]3(C)Oc4c(O)ccc5c4C31CCN(CC1CC1)[C@@H]2C5', 'Selectivity', 30),
  ('CCO[C@@]12Cc3c([nH]c4ccccc34)[C@]3(C)Oc4c(O)ccc5c4[C@@]31CCN(CC1CCC1)[C@@H]2C5', 'Selectivity', 30),
  ('CO[C@@]12Cc3c([nH]c4ccccc34)[C@]3(C)Oc4c(O)ccc5c4[C@@]31CCN(C)[C@@H]2C5', 'Selectivity', 387),
  ('CCCO[C@@]12Cc3c([nH]c4ccccc34)[C@]3(C)Oc4c(O)ccc5c4[C@@]31CCN(C)[C@@H]2C5', 'Selectivity', 105);

Lab note: each compound below needs its Selectivity filled in.
1. C=CCN1CC[C@]23c4c5ccc(O)c4O[C@H]2c2oc4ccccc4c2C[C@@]3(OCC)[C@H]1C5
2. CCO[C@@]12Cc3c([nH]c4ccccc34)[C@]3(C)Oc4c(O)ccc5c4[C@@]31CCN(C)[C@@H]2C5
3. CCCO[C@@]12Cc3c(n(CCC)c4ccccc34)[C@@H]3Oc4c(O)ccc5c4[C@@]31CCN(CC1CC1)[C@@H]2C5
4. CCCN1CC[C@]23c4c5ccc(O)c4O[C@H]2c2c(c4ccccc4n2C)C[C@@]3(OC)[C@H]1C5

OUTPUT:
[57, 186, 2.4, 10]

----------
I'd be grateful if you could share measured Ki for these entries.
- TARGET_OR_TEST_SYSTEM: Delta-type opioid receptor (Rattus norvegicus, UniProt P33533)
- METHOD_NOTES: Binding affinity at delta opioid receptor 1 in rat brain membrane by [3H]DADLE displacement.
- Type: cell membranes
Numbers only, in nM.

INSERT INTO assay_data (smiles_record, reported_property, unit_symbol, endpoint_value) VALUES
  ('CO[C@@]12Cc3c([nH]c4ccccc34)[C@]3(C)Oc4c(O)ccc5c4[C@@]31CCN(C)[C@@H]2C5', 'Ki', 'nM', 3.95),
  ('C=CCN1CC[C@]23c4c5ccc(O)c4O[C@H]2c2c(c4ccccc4n2Cc2ccccc2Cl)C[C@@]3(OCc2ccccc2Cl)[C@H]1C5', 'Ki', 'nM', 151),
  ('C=CCO[C@@]12Cc3c(n(CC=C)c4ccccc34)[C@@H]3Oc4c(O)ccc5c4[C@@]31CCN(CC=C)[C@@H]2C5', 'Ki', 'nM', 7.3);

In the following, a different molecule is considered.
INPUT: Returns the measured Ki for the input molecule. Input: `CCCO[C@@]12Cc3c([nH]c4ccccc34)[C@]3(C)Oc4c(O)ccc5c4[C@@]31CCN(C)[C@@H]2C5`
OUTPUT: 5.3
